- assay.target: UniProt P05067
- Sequence (P05067 672-713): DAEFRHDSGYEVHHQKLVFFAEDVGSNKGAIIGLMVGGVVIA
- assay.summary: Th-T (thioflavin-T) assay of Aβ42 aggregation
- Type: biochemical
- assay.context: column suffix _10; reading M12
Listed next: entries and their corresponding Th-T assay signal, mean of three wells (Fig. 7a).
Please respond with just the number, no unit label.

INSERT INTO results (molecule, recorded_measurement) VALUES
  ('C=C1CCC2C(C)(CCC=C(C)C)C(O)CCC2(C)C1Cc1c(OC)oc(C)c(C(=O)OC)c1=O (centres unmarked) [Compound 14]', 0.5064),
  ('C=C1CC[C@@H]2[C@](C)(CC[C@H]3O[C@H](C=C(C)C)C[C@@]23C)[C@@H]1Cc1c(OC)oc(CO)c(C)c1=O [Compound 20]', 0.8506),
  ('C=C1CCC2C(C)(CCC=C(C)C)C(O)CCC2(C)C1Cc1c(OC)oc(CO)c(C)c1=O (centres unmarked) [Compound 12]', 0.6921);

Ask: Give the measured Th-T assay signal, mean of three wells (Fig. 7a) of C=C1CCC2C(C)(CCC=C(C)C)C(O)CCC2(C)C1Cc1c(OC)oc(CO)c(C(=O)OC)c1=O (centres unmarked) [Compound 13] .
Reply: 0.2292

Ask: Give the measured Th-T assay signal, mean of three wells (Fig. 7a) of C=C1CC[C@@H]2[C@](C)(CC[C@H]3O[C@H](C=C(C)C)C[C@@]23C)[C@@H]1Cc1c(OC)oc(CO)c(C(=O)OC)c1=O [Compound 21] .
Reply: 0.2206
